system: A549 NSCLC; assay: NCI tumour cell line growth inhibition, 48 h
Would you mind telling me the reported TGI of each entry?

# query: TGI of entry COC(CN1C(=O)c2cccc3cccc(c23)C1=O)OC
> 100 µM

Now try CC(C)CC(=O)OC[n+]1ccc(-c2c(COC(=O)NC(C)C)c(COC(=O)NC(C)C)c3n2CCC3)cc1 .
> 100 µM

Now try N#CC1C(C#N)C2(c3ccccc3)C(c3ccccc3)=NN(c3ccccc3)CC12 (stereo not given) .
> 100 µM

Now try C#Cc1ccc(-n2c(/C=C/c3ccc(C(F)(F)F)cc3)nc3ncccc3c2=O)cc1 .
4.56 µM

Now try Cc1cc(I)cc(CN(C)CCCCN2CCCCC2)c1O .
96.8 µM

Now try O=C1C2C(C(=O)N1OS(=O)(=O)c1ccccc1)N(Cc1ccccc1)C(=O)N2Cc1ccccc1 (stereo not given) .
> 100 µM

Now try N=c1n(C(=O)N2CCCC2)c2cc(Cl)ccc2n1C1=NCCN1 .
> 100 µM

Now try CCC1(O)CC2CC(=O)OC2C1O (stereo not given) .
> 100 µM

Now try Cc1cc(=O)[nH]c(NN2C(Cl)C(=O)C2c2ccccc2O)n1 (stereo not given) .
> 100 µM

Now try O=S1(=O)c2ccccc2NC(c2ccc3ccccc3c2)CC1c1ccccc1F (stereo not given) .
> 100 µM

###

tested on: DU-145 prostate; experiment: NCI tumour cell line growth inhibition, 48 h
Where a SMILES comes first, the peptide text is derived from it. [ ]: non-standard residue; d: D form. The star is where a group is joined. ξ: configuration not given here. X6 = FC(F)(F)c1cc(NC(=S)*)cc(C(F)(F)F)c1; ξF = NC(Cc1ccccc1)C(=O)O
Would you mind telling me the reported GI50 of each entry?

# query: GI50 of entry CC[C@@]1(O)C[C@H](OC2CC(N(C)C)C(O)C(C)O2)c2c(O)c3c(c(O)c2[C@H]1OC1CC(N(C)C)C(O)C(C)O1)C(=O)c1cccc(O)c1C3=O (some centres undefined)
< 0.01 µM

Now try COC(=O)[C@@H](NC(=O)CNC(=O)[C@H]1CCCN1C(=O)C(Cc1ccccc1)NC(=S)Nc1cc(C(F)(F)F)cc(C(F)(F)F)c1)C(C)C (some centres undefined) (X6-[ξF][dP]GV-OMe) .
4.85 µM

Now try COc1cc(/C=N/NC(=O)c2ccc(C(F)(F)F)nc2Nc2ccc(Cl)cc2C)ccc1O .
4.27 µM

Now try COc1ccc2c(C3=C(c4cn(C)c5ccccc45)C(=O)NC3=O)cn(C)c2c1 .
0.137 µM

###

tested on: SK-MEL-5 melanoma; experiment: NCI tumour cell line growth inhibition, 48 h
metric: GI50

# query: GI50 of entry COc1cc(CNc2cnc3cc(N)cc(N)c3n2)cc(OC)c1
18.7 µM

Now try CC1=C(C(=O)Nc2ccc(Cl)c(Cl)c2)C(c2cccc(Oc3ccccc3)c2)NC(=S)N1 (stereo unspecified) .
7.89 µM

Now try COC1=CC(c2ccc[nH]2)=N/C1=C\c1[nH]c(C)c(C(=O)OC(C)C)c1C .
0.0242 µM

Now try Cc1ccc(NC2=C(Cl)C(=O)N(Cc3ccccc3)C2=O)cc1O .
15.5 µM

Now try CO[C@H](C(=O)[C@@H](O)[C@@H](C)O)[C@@H]1Cc2cc3cc(O[C@H]4C[C@@H](O[C@H]5C[C@@H](O)[C@H](O)C(C)O5)[C@H](O)C(C)O4)c(C)c(O)c3c(O)c2C(=O)[C@H]1O[C@H]1C[C@@H](O[C@H]2C[C@@H](O[C@H]3C[C@](C)(O)C(=O)C(C)O3)[C@@H](O)C(C)O2)[C@H](O)C(C)O1 (stereo partly specified) .
0.0385 µM

Now try Cc1cc(I)cc(CN(C)CCCCN2CCCCC2)c1O .
3.33 µM

Now try C=C(CN1CCN(c2ccc(Cl)cc2F)CC1)c1ccc(C(=O)Nc2ccccc2N)cc1 .
2.3 µM

Now try CC[C@@]1(O)C[C@H](OC2CC(N(C)C)C(O)C(C)O2)c2c(O)c3c(c(O)c2[C@H]1OC1CC(N(C)C)C(O)C(C)O1)C(=O)c1cccc(O)c1C3=O (stereo partly specified) .
< 0.01 µM

Now try NC(=O)c1cccc2cn(-c3ccc([C@@H]4CCCNC4)cc3)nc12 .
13.8 µM

Now try CCCNC1=C2CC(C)CC(OC)[C@@H](O)[C@H](C)/C=C(\C)C(OC(N)=O)C(OC)/C=C\C=C(/C)C(=O)NC(=CC1=O)C2=O (stereo partly specified) .
0.0343 µM

Now try O=S(=O)(NC1=NCCN1C(=S)SN1CCn2c1nsc2=S)c1ccc(OC(F)(F)F)cc1 .
8.49 µM
